Test system: SF-295
Assay name: NCI tumour cell line growth inhibition, 48 h
The source made the active and inactive calls. Cut-off read from the data, not from the text of the source: active = GI50 up to about 1.1 µM and inactive = higher.
Attribute measured: GI50

Reference set, count: 8
- Cc1oc2ccccc2c(=O)c1Cn1nnc2ccccc21: > 100 µM (inactive)
- O=c1[nH]c(-c2ccccc2)nc2ccc(Cl)cc12: 73.6 µM (inactive)
- COc1ccc(N2C(=O)C(=O)C3(CCCCC3)C2=O)c(OC)c1OC: > 100 µM (inactive)
- Cc1cn(C2CCN(CC3COC(C)(C)O3)O2)c(=O)[nH]c1=O (centres undefined): > 100 µM (inactive)
- CN1C(=O)CN(NC(=O)C2=C(O)c3ccc(Br)cc3S(=O)(=O)N2)C1=S: > 100 µM (inactive)
- CCOc1ccc(-c2nc(-c3oc4ccccc4c(=O)c3OC(C)=O)cs2)cc1: > 10 µM (inactive)
- OCCSCc1cc2c(O)c(c1)Cc1cc(CSCCO)cc(c1O)Cc1cc(CSCCO)cc(c1O)Cc1cc(CSCCO)cc(c1O)C2: 5.02 µM (inactive)
- Cc1cc(O)cc2oc(=O)c3c(O)cc(O)cc3c12 [ALTERNARIOL]: 26.3 µM (inactive)

Ask | Can you look up the measured GI50 of `CN(C)/C=N/c1c2ccccc2nc2ccccc12` for me?
Reply | 5.7 µM (inactive)
